Reported inhibition at 0.1 µM values are given for each entry in this list.
target: human oxytocin receptor (Homo sapiens)
Construct: host or cells: CHO cells (pcDNA3.1 vector)
Sequence (P30559 whole entry): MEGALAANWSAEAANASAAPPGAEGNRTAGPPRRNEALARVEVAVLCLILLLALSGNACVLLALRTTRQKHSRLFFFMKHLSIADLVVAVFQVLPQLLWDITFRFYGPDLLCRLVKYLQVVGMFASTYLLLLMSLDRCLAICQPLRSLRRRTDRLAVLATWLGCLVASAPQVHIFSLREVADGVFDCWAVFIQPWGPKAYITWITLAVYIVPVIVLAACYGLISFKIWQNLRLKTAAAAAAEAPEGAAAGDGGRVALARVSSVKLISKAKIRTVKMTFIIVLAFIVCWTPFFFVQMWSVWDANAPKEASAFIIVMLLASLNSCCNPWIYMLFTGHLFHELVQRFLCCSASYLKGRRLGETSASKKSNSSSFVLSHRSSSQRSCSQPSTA
experimental_details: Oxytocin binding in Chinese Hamster Ovary cell membranes expressing human oxytocin receptors
test_parameters: 100 nM, CHO cell membranes, [3H]oxytocin, values without parentheses, read-out: OT % inhibition @ 100% nM
Kindly answer with a numeric value in %, unit omitted.

Challenge: Item COc1cc(C(=O)N2Cc3ccc(C(=O)N4CCN(CCN5CCOCC5)CC4)n3Cc3ccccc32)ccc1-c1ccccc1C has what recorded inhibition at 0.1 µM?
Response given: 82

Challenge: Item COc1cccc(-c2ccc(C(=O)N3Cc4ccc(C(=O)N5CCN(CCN6CCOCC6)CC5)n4Cc4ccccc43)cc2C)c1 has what recorded inhibition at 0.1 µM?
Response given: 81

Challenge: Item Cc1cc(C(=O)N2Cc3ccc(C(=O)N[C@H]4CN5CCC4CC5)n3Cc3ccccc32)ccc1-c1ccccc1C(F)(F)F has what recorded inhibition at 0.1 µM?
Response given: 82
